Recorded measurements of EC50, one per entry
# System: HaCaT cells
# Experiment: Cytotoxicity, resazurin metabolic conversion, HaCaT
# Assay type: cell-based, human
# Condition: read-out: EC50, 50% decrease in cell viability, 24 hours of exposure
Report as a plain number; the unit µM is understood.

O=C(O)c1cc(O)c(O)c(O)c1 [[Chol][Gal]]: 304

[in] For the molecule O=C(O)/C=C/c1ccc(O)c(O)c1 [[Chol][Caf]] , give its measured EC50 value.
[out] 1790

###

# Experiment: Water solubility from saturated aqueous solution, UV quantification
# Type: physicochemical
# Condition: pure water, 25 °C, water, thermodynamic from solid
Readout: solubility at 72 h (mM)
Report as a plain number; the unit mM is understood.

O=C(O)/C=C/c1ccc(O)c(O)c1 [caffeic acid, reference compound]: 3.84

Pending compound:
[in] For the compound O=C(O)c1cc(O)c(O)c(O)c1 [gallic acid, 3,4,5-trihydroxybenzoic acid, reference compound] , give its measured solubility at 72 h value.
[out] 71.3
